pIC50: −log10 of the molar value.
What follows is a collection of pIC50 values obtained with BTK (Homo sapiens (Human)).
Sequence (Q06187 whole entry): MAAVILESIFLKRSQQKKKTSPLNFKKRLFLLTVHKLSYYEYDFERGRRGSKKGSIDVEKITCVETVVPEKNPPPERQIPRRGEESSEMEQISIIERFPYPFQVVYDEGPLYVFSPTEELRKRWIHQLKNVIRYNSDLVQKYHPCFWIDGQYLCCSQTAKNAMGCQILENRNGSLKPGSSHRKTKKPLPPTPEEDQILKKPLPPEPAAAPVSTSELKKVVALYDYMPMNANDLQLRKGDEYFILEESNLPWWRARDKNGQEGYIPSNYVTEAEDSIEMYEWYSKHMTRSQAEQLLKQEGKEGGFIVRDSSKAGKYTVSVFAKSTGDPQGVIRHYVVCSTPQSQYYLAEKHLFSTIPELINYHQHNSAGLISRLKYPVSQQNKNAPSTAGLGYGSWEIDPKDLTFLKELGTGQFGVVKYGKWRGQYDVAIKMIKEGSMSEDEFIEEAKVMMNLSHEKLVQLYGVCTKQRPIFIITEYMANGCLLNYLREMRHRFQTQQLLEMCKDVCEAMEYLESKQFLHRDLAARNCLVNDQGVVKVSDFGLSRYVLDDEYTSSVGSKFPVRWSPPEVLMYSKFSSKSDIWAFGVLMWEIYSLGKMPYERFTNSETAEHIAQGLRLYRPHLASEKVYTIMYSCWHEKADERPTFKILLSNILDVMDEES
Property measured: pIC50

API: value(readout= pIC50, system= BTK (Homo sapiens (Human)), query= NC(=O)c1c(-c2ccc(Oc3ccc(F)cc3)cc2)nc2n1NCCC2C1CCN(C(=O)/C=C/C(F)(F)F)CC1 (stereo not shown) [Example 14] ) 7.21

[I] C=CC(=O)N1CCC(C2CCNn3c2nc(-c2ccc(Oc4ccccc4)cc2)c3C(N)=O)CC1 (single isomer, unassigned) [1b (peak 2)]
[II] C=CC(=O)N1CCC(C2CCNn3c2nc(-c2ccc(Oc4ccc(F)cc4)cc2)c3C(N)=O)CC1 (stereo not shown) [Example 12]
[III] NC(=O)c1c(-c2ccc(Oc3ccccc3)cc2)nc2n1NCCC2C1CCN(C(=O)/C=C/C(F)(F)F)CC1 (single isomer, unassigned) [10a (peak 1)]
[IV] C=CC(=O)N1CCC(C2CCNn3c2nc(-c2ccc(Oc4ccccc4)cc2)c3C(N)=O)CC1 (single isomer, unassigned) [1a (peak 1)]
[V] CC#CC(=O)N1CCC(C2CCNn3c2nc(-c2ccc(Oc4ccc(OC)cc4)cc2)c3C(N)=O)CC1 (stereo not shown) [Example 16]
Put the molecules in ascending order of pIC50. Give your ranking as a list of the labels in the requested order. V, II, I, III, IV
(V: 6.11, II: 7.31, I: 7.54, III: 8.17, IV: 8.59)

These entries and their values trace back to patent US12552798B2.
